target.of.assay: T1, IL-18 receptor on HEK-Blue IL18R reporter cells (UniProt Q13478 19-541; O95256 20-599, limits assumed)
T1 sequence (looked up) 1: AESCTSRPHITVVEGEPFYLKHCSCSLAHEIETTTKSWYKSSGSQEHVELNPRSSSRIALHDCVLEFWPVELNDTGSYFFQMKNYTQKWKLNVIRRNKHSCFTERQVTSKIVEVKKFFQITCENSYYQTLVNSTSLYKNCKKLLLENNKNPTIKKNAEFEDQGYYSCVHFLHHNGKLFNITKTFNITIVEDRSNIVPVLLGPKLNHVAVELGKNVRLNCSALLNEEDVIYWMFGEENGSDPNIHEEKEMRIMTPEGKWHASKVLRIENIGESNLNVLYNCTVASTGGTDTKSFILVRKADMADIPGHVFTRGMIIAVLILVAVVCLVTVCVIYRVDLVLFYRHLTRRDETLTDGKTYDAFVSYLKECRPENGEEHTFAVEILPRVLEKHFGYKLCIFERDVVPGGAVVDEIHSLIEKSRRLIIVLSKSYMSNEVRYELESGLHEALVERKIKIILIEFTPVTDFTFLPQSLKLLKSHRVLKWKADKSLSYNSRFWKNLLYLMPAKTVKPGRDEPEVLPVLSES
T1 sequence (looked up) 2: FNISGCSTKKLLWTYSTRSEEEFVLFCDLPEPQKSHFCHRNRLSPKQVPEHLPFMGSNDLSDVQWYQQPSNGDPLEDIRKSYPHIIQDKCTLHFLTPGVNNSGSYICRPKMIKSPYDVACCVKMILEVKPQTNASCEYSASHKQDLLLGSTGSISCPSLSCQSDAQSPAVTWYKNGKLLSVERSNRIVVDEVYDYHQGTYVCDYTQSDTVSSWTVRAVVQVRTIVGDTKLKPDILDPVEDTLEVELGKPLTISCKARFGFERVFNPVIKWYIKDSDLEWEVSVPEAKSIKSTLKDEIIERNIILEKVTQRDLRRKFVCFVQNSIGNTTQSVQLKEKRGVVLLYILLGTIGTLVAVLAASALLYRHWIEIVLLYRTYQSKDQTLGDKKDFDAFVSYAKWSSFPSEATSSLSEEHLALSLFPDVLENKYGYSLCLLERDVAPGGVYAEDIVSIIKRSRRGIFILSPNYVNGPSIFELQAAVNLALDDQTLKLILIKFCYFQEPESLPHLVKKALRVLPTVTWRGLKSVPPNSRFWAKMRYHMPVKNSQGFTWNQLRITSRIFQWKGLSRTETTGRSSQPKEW
assay.method.text: cell-based or functional assay
Entries and their EC50, HEK-Blue IL18R reporter (SEAP)
Give your result in nM as a bare value.

Below, each entry is followed by its recorded EC50, HEK-Blue IL18R reporter (SEAP) result.
{"binder": "modified IL-18 polypeptide SEQ ID NO: 213 (V11I, S36A, C38A, K53A, C76A, C127A) (ligand) YFGKLESKLSIIRNLNDQVLFIDQGNRPLFEDMTDADARDNAPRTIFIISMYADSQPRGMAVTISVKCEKISTLSAENKIISFKEMNPPDNIKDTKSDIIFFQRSVPGHDNKMQFESSSYEGYFLAAEKERDLFKLILKKEDELGDRSIMFTVQNED", "value.unit": "nM", "data.value": 0.25}
{"binder": "modified IL-18 polypeptide SEQ ID NO: 214 (V11I, D37A, C38A, K53A, C76A, C127A) (ligand) YFGKLESKLSIIRNLNDQVLFIDQGNRPLFEDMTDSAARDNAPRTIFIISMYADSQPRGMAVTISVKCEKISTLSAENKIISFKEMNPPDNIKDTKSDIIFFQRSVPGHDNKMQFESSSYEGYFLAAEKERDLFKLILKKEDELGDRSIMFTVQNED", "value.unit": "nM", "data.value": 14.1}
{"binder": "modified IL-18 polypeptide SEQ ID NO: 221 (V11I, C38A, K53A, C76A, D110A, C127A) (ligand) YFGKLESKLSIIRNLNDQVLFIDQGNRPLFEDMTDSDARDNAPRTIFIISMYADSQPRGMAVTISVKCEKISTLSAENKIISFKEMNPPDNIKDTKSDIIFFQRSVPGHANKMQFESSSYEGYFLAAEKERDLFKLILKKEDELGDRSIMFTVQNED", "value.unit": "nM", "data.value": 2.02}
{"binder": "modified IL-18 polypeptide SEQ ID NO: 215 (V11I, E31A, D37A, C38A, K53A, C76A, C127A) (ligand) YFGKLESKLSIIRNLNDQVLFIDQGNRPLFADMTDSAARDNAPRTIFIISMYADSQPRGMAVTISVKCEKISTLSAENKIISFKEMNPPDNIKDTKSDIIFFQRSVPGHDNKMQFESSSYEGYFLAAEKERDLFKLILKKEDELGDRSIMFTVQNED", "value.unit": "nM", "data.value": 11.9}
{"binder": "modified IL-18 polypeptide SEQ ID NO: 237 (E6K, V11I, C38A, K53A, T63A, C76A, C127A, V153E) (ligand) YFGKLKSKLSIIRNLNDQVLFIDQGNRPLFEDMTDSDARDNAPRTIFIISMYADSQPRGMAVAISVKCEKISTLSAENKIISFKEMNPPDNIKDTKSDIIFFQRSVPGHDNKMQFESSSYEGYFLAAEKERDLFKLILKKEDELGDRSIMFTEQNED", "value.unit": "nM", "data.value": 0.1}

Entry modified IL-18 polypeptide SEQ ID NO: 225 (V11I, C38A, S55H, C76A, C127A) (ligand) YFGKLESKLSIIRNLNDQVLFIDQGNRPLFEDMTDSDARDNAPRTIFIISMYKDHQPRGMAVTISVKCEKISTLSAENKIISFKEMNPPDNIKDTKSDIIFFQRSVPGHDNKMQFESSSYEGYFLAAEKERDLFKLILKKEDELGDRSIMFTVQNED , EC50, HEK-Blue IL18R reporter (SEAP) reported as 3.14

EC50, HEK-Blue IL18R reporter (SEAP) for modified IL-18 polypeptide SEQ ID NO: 217 (V11I, C38A, N41A, K53A, C76A, C127A) (ligand) YFGKLESKLSIIRNLNDQVLFIDQGNRPLFEDMTDSDARDAAPRTIFIISMYADSQPRGMAVTISVKCEKISTLSAENKIISFKEMNPPDNIKDTKSDIIFFQRSVPGHDNKMQFESSSYEGYFLAAEKERDLFKLILKKEDELGDRSIMFTVQNED is 11.7
